Reported MIC values for the following molecules.
system: Edwardsiella tarda; assay: MIC, microdilution in 96-well plates; type: cell-based; conditions: D: Edwardsiella tarda
Value kind: MIC

# Molecule, Value kind, Observed value
records = [
    ("O=S(=O)(N[C@@H]1CCN(Cc2ccc(-c3ccccc3)cc2)C1)c1cccc2cccnc12 [Compound 105]", "MIC", "> 8 µg/mL"),
    ("O=S(=O)(N[C@@H]1CCN(Cc2ccc(-c3cccs3)cc2)C1)c1cccc(OC(F)(F)F)c1 [Compound 53]", "MIC", "> 8 µg/mL"),
    ("O=S(=O)(N[C@@H]1CCN(Cc2ccc(-c3ccccc3)cc2)C1)c1cc(C(F)(F)F)ccc1F [Compound 114]", "MIC", "> 8 µg/mL"),
    ("O=S(=O)(N[C@@H]1CCN(Cc2ccc(OC3CCCC3)cc2)C1)c1cccc(OC(F)(F)F)c1 [Compound 45]", "MIC", "> 8 µg/mL"),
    ("O=S(=O)(N[C@@H]1CCN(Cc2ccc(OC3CCOCC3)cc2)C1)c1cccc(C(F)(F)F)c1 [Compound 38]", "MIC", "> 8 µg/mL"),
    ("N#Cc1cccc(S(=O)(=O)N[C@@H]2CCN(Cc3ccc(OC(F)F)cc3)C2)c1 [Compound 2]", "MIC", "> 8 µg/mL"),
    ("CC(=O)c1cccc(S(=O)(=O)N[C@@H]2CCN(Cc3ccc(-c4ccccc4)cc3)C2)c1 [Compound 44]", "MIC", "> 8 µg/mL"),
    ("CC(C)Oc1ccc(CN2CC[C@@H](NS(=O)(=O)c3cc(C#N)ccc3Cl)C2)cc1 [Compound 10]", "MIC", "> 8 µg/mL"),
]

* * *

Reported MIC values for the following molecules.
test system: Salmonella enterica subsp. enterica typhimurium; assay: MIC, 20-strain panel; format: cell-based; details: F: Salmonella enterica subsp. enterica Typhimurium

# Mol, MIC
data = [
    ("O=S(=O)(N[C@@H]1CCN(Cc2cn(-c3ccccc3)nn2)C1)c1cccc(C(F)(F)F)c1", "> 8 µg/mL"),
    ("O=S(=O)(N[C@@H]1CCN(Cc2ccc(-c3ccccc3)cc2)C1)c1cc(F)cc(C(F)(F)F)c1", "> 8 µg/mL"),
    ("O=S(=O)(N[C@@H]1CCN(Cc2ccc(-c3cccc(Cl)c3)cc2)C1)c1cccc(OC(F)(F)F)c1", "> 8 µg/mL"),
    ("CC(C)(C)Oc1ccc(CN2CC[C@@H](NS(=O)(=O)c3cccc(C#N)c3)C2)cc1", "> 8 µg/mL"),
    ("O=S(=O)(N[C@@H]1CCN(Cc2ccc(-c3ccccc3)cc2)C1)c1cc(S(=O)(=O)c2ccccc2)cs1", "> 8 µg/mL"),
    ("Cc1nn(C)c2ncc(S(=O)(=O)N[C@@H]3CCN(Cc4ccc(-c5ccccc5)cc4)C3)cc12", "> 8 µg/mL"),
    ("N#Cc1cccc(S(=O)(=O)N[C@@H]2CCN(Cc3ccn(-c4ccccc4)n3)C2)c1", "> 8 µg/mL"),
    ("O=S(=O)(N[C@@H]1CCN(Cc2ccc(OC3CCOCC3)cc2)C1)c1cccc(OC(F)(F)F)c1", "> 8 µg/mL"),
    ("O=S(=O)(N[C@@H]1CCN(Cc2ccc(-c3ccc(Cl)cc3)cc2)C1)c1cccc(OC(F)(F)F)c1", "> 8 µg/mL"),
    ("N#Cc1cccc(S(=O)(=O)N[C@@H]2CCN(Cc3ccc(-c4ccccc4Cl)cc3)C2)c1", "> 8 µg/mL"),
    ("N#Cc1cccc(S(=O)(=O)N[C@@H]2CCN(Cc3ccc(OC4CCOCC4)cc3)C2)c1", "8 µg/mL"),
    ("O=S(=O)(N[C@@H]1CCN(Cc2ccc(OC(F)F)cc2)C1)c1cccc(C(F)(F)F)c1", "> 8 µg/mL"),
    ("O=S(=O)(N[C@@H]1CCN(Cc2ccc(-n3cccn3)cc2)C1)c1cccc(C(F)(F)F)c1", "> 8 µg/mL"),
    ("Cc1ccc(C(F)(F)F)cc1S(=O)(=O)N[C@@H]1CCN(Cc2ccc(-c3ccccc3)cc2)C1", "> 8 µg/mL"),
    ("O=S(=O)(N[C@@H]1CCN(Cc2ccc(-c3ccccc3Cl)cc2)C1)c1cccc(OC(F)(F)F)c1", "> 8 µg/mL"),
]
